- tested.target: human ADAMTS-5 (Homo sapiens (Human), UniProt Q9UNA0)
- Sequence (Q9UNA0 262-930): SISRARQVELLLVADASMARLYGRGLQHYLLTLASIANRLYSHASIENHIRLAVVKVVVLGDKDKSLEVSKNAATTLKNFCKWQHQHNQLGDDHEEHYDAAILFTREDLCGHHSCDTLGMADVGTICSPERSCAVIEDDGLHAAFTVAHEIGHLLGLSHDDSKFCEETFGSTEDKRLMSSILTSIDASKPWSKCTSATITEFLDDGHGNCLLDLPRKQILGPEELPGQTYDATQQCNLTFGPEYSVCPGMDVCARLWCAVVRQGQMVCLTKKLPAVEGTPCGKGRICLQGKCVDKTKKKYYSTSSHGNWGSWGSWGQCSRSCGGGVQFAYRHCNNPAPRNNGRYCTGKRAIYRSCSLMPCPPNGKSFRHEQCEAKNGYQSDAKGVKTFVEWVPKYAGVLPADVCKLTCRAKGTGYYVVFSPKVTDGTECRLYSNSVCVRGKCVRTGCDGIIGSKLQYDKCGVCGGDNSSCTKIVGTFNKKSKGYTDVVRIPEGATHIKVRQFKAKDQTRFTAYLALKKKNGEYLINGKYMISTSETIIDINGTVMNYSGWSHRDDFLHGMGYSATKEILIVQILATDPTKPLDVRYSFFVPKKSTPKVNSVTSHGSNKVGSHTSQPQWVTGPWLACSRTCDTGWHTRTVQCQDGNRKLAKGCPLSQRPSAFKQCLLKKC
- settings: read-out: hADAMTS-5 potency IC50
Each entry below carries its recorded IC50.
Numbers only here, please. The scale is nM.

{"compound": "C[C@@H](C[C@@]1(C2CC2)NC(=O)NC1=O)C(=O)N1CCN(c2cc(F)cc(-c3cn[nH]c3)c2)[C@@H](C)C1 [Cpd 379]", "result.value": 18}
{"compound": "CC(CC1(C2CC2)NC(=O)NC1=O)C(=O)N1CCN(c2cncc(Cl)c2)[C@@H](C)C1 (some centres unmarked) [compound 314]", "result.value": 24}
{"compound": "C[C@H]1CN(C(=O)CCC2(c3cn(C)cn3)NC(=O)NC2=O)CCN1c1cc(F)cc(Cl)c1 (some centres unmarked) [compound 389]", "result.value": 40}
{"compound": "C[C@H]1CN(C(=O)CCC2(c3cnccn3)NC(=O)NC2=O)CCN1c1ccc(F)c(Cl)c1 (some centres unmarked) [compound 349]", "result.value": 62}
{"compound": "COCC(CC1(C)NC(=O)NC1=O)C(=O)N1CCN(c2cc(Cl)cc(Cl)c2)CC1 (centres unmarked) [compound 436]", "result.value": 22}
{"compound": "CC(CC1(C)NC(=O)NC1=O)C(=O)N1CCN(c2ccc(F)c(Cl)c2)[C@@H](C)C1 (some centres unmarked) [compound 422]", "result.value": 21}

Incoming: Can you look up the measured IC50 of Cc1ccc(F)cc1N1CCN(C(=O)C(C)CC2(C3CC3)NC(=O)NC2=O)CC1 (centres unmarked) [compound 174] for me?
Outgoing: 21
